Values were extracted from ChEMBL document CHEMBL3407450.

Tested on: HepG2
ASSAY_NOTES: Cytotoxicity against human HepG2 cells assessed as cell viability after 48 hrs by MTT assay
Assay type: functional, cell-based
TEST_SETTINGS: HepG2, 48 h
Quick reference for IC50 among some molecules
Numbers only; they are read as µM.

COc1ccc2nc(Cl)c(Cn3cc(CN4c5ccc(C)cc5C(C)=CC4(C)C)nn3)cc2c1 ... 21.6

The molecule identified as COc1ccc2c(c1)C(C)=CC(C)(C)N2Cc1cn(Cc2cc3cc(OC)ccc3nc2Cl)nn1 registered its IC50 at 27.2

---

Tested on: HepG2
ASSAY_NOTES: Cytotoxicity against human HepG2 cells assessed as cell viability after 48 hrs by MTT assay
Format: functional, cell-based
TEST_SETTINGS: HepG2, 48 h
pIC50: −log10 of the molar value.
Kind request: treat 5 as inclusive, so pIC50 at 5 or higher is Satisfied, anything lower is Not satisfied.

Sample answers from the record:
COc1cccc2c1C(=O)c1c(O)c3c(c(O)c1C2=O)C[C@@](O)(C(=O)CO)C[C@@H]3O[C@H]1C[C@H](N)[C@H](O)[C@H](C)O1 ... Satisfied
CC1=CC(C)(C)N(Cc2cn(Cc3cc4ccc(C)cc4nc3Cl)nn2)c2ccccc21 ... Not satisfied
CC1=CC(C)(C)N(Cc2cn(Cc3cc4cc(C)ccc4nc3Cl)nn2)c2ccccc21 ... Not satisfied

Next:
Data request: Check this molecule for pIC50 at or above 5: COc1ccc2nc(Cl)c(Cn3cc(CN4c5ccccc5C(C)=CC4(C)C)nn3)cc2c1
Data returned: Not satisfied
